Reference for the values: patent US8268874B2

tested on: CAKI-1 (Renal); assay: NCI anti-cancer drug screen, growth inhibition of CAKI-1 cells; assay type: cell-based; settings: Homo sapiens, Table 5

compound | unitAnnotation | IC50
O=C(NCc1cn(Cc2cccc(Oc3ccccc3)c2)nn1)c1coc(-c2ccccc2)n1 | nM | 392

* * *

tested on: PC-3 (Prostate); test: NCI anti-cancer drug screen, growth inhibition of PC-3 cells; assay type: cell-based; conditions: Homo sapiens, Table 5
pIC50: −log10 of the molar value.

compound | targetOrTestSystem | relationSign | pIC50
O=C(NCc1cn(Cc2cccc(Oc3ccccc3)c2)nn1)c1ccccn1 | PC-3 (Prostate) | = | 6.52
O=C(NCc1cn(Cc2cccc(Oc3ccccc3)c2)nn1)c1cocn1 | PC-3 (Prostate) | = | 6.00
O=C(NCc1cn(Cc2cccc(Oc3ccccc3)c2)nn1)c1ccccc1 | PC-3 (Prostate) | = | 6.30
CC(C)(C)[Si](C)(C)Oc1cccc(Cn2cc(CNC(=O)c3coc(-c4ccc(Cl)cc4)n3)nn2)c1 | PC-3 (Prostate) | < | 4.30
CCCCCCCCn1cc(CNC(=O)c2coc(-c3ccc(C)cc3)n2)nn1 | PC-3 (Prostate) | < | 4.70
CCCCCCCCn1cc(CNCc2coc(-c3ccc(OC)cc3)n2)nn1 | PC-3 (Prostate) | < | 4.00
Cc1ccc(-c2nc(C(=O)NCc3cn(Cc4cccc(O[Si](C)(C)C(C)(C)C)c4)nn3)co2)cc1 | PC-3 (Prostate) | = | 4.70
COc1ccc(-c2nc(CNCc3cn(Cc4ccc(Oc5ccccc5)cc4)nn3)co2)cc1 | PC-3 (Prostate) | = | 5.00
CC(=O)NCc1cn(Cc2cccc(Oc3ccccc3)c2)nn1 | PC-3 (Prostate) | = | 4.77

* * *

test system: PC-3 (Prostate); test: NCI anti-cancer drug screen, growth inhibition of PC-3 cells; format: cell-based; settings: Homo sapiens, Table 5

compound | IC50
O=C(NCc1cn(C23CC4CC(CC(C4)C2)C3)nn1)c1coc(-c2ccc(Cl)cc2)n1 [ND-008471] | > 20 µM
OCc1cn(Cc2cccc(Oc3ccccc3)c2)nn1 [ND-008493] | > 20 µM
Cc1ccc(-c2nc(C(=O)NCc3cn(C45CC6CC(CC(C6)C4)C5)nn3)co2)cc1 [ND-008470] | > 20 µM
